- EXPERIMENT DESCRIPTION: self-splicing fitness, log relative to wild type (ln ratio); higher = more splicing; Tetrahymena group I intron in knt gene, E. coli kanamycin selection, DiMSum; sequences stand for … in CUCUCU…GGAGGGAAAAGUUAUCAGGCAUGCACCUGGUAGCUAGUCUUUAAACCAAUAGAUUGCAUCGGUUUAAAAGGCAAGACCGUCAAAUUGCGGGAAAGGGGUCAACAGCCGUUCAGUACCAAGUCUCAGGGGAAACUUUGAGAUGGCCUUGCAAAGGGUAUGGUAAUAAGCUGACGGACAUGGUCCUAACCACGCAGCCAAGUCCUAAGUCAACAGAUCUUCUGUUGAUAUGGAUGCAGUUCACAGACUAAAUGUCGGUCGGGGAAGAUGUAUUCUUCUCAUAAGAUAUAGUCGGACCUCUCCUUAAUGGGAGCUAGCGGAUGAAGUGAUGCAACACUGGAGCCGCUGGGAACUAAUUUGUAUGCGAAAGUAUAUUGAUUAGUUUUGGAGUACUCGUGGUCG;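 note: selection with 25 µg/mL kanamycin versus none on LB agar overnight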
- ASSAY CONTEXT: 37 °C
Attribute: self-splicing fitness (ln)

Some sequences with recorded self-splicing fitness (ln):
INSERT INTO assay_data (monomer_sequence, assay_endpoint, data_value) VALUES
  ('CGAGAGCAAUAUUACGGACG', 'self-splicing fitness (ln)', -0.913),
  ('UCGCAGCAAUAUUACGUCGA', 'self-splicing fitness (ln)', -2.03),
  ('AAAUAGCAAUAUUACGGGUU', 'self-splicing fitness (ln)', -0.924),
  ('GCAGAGCAAUAUUACGAGAA', 'self-splicing fitness (ln)', -1.96),
  ('AUACAGCAAUAUUACGCGAC', 'self-splicing fitness (ln)', -1.97);

Could you now look at the following sequence, please?
Indicate its recorded self-splicing fitness (ln); the sequence in question is CGCGAGCAAUAUUACGAUUA
-1.99

* * *

# self-splicing fitness (ln) per entry
- EXPERIMENT DESCRIPTION: self-splicing fitness, log relative to wild type (ln ratio); higher = more splicing; Tetrahymena group I intron in knt gene, E. coli kanamycin selection, DiMSum; sequences stand for … in CUCUCU…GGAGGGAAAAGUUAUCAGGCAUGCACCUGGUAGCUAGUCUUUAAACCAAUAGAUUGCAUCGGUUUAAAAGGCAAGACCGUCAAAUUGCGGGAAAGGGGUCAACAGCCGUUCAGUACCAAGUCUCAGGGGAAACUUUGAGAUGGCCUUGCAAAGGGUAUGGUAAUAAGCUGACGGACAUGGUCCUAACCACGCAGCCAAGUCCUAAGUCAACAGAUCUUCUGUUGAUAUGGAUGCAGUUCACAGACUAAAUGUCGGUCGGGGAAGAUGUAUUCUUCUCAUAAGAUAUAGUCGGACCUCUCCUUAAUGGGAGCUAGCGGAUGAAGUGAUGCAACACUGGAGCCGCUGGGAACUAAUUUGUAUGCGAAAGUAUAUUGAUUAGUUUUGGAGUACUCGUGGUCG
- ASSAY CONTEXT: 30 °C

The examples below pair each entry with its known result.
INSERT INTO results (monomer_sequence, data_value) VALUES
  ('UAUAAGCAAUAUUACGUUGC', -3.02),
  ('CAAAAGCAAUAUUACGAACC', -1.63),
  ('GACCAGCAAUAUUACGAACA', -0.472),
  ('CGUAAGCAAUAUUACGGGAA', -3.04),
  ('GCCAAGCAAUAUUACGAACC', -2.03);

Find the measured self-splicing fitness (ln) of CUGCAGCAAUAUUACGGCGA and report it.
-0.954

Read off the recorded self-splicing fitness (ln) for ACUGAGCAAUAUUACGCGCU
-3.03

In one line, give reported self-splicing fitness (ln) of the entry GAACAGCAAUAUUACGACUG .
-1.45

Give self-splicing fitness (ln) for GGUUAGCAAUAUUACGCACG
-0.656
